# Lookup of reported EC50 (read off the curve) keyed by entry
# Test target: T1, monkey CD73 on CHOK1-cynoCD73 cells (monkey, UniProt A0A2K5V5U7 27-549, GPI anchor at the C-terminus of the mature chain (paragraph 3 says CD73 is GPI-anchored). The propeptide 550-574 is removed.)
# T1 construct: also called CHOK1-cyno73 cells; monkey CD73 positive cells
# T1 sequence: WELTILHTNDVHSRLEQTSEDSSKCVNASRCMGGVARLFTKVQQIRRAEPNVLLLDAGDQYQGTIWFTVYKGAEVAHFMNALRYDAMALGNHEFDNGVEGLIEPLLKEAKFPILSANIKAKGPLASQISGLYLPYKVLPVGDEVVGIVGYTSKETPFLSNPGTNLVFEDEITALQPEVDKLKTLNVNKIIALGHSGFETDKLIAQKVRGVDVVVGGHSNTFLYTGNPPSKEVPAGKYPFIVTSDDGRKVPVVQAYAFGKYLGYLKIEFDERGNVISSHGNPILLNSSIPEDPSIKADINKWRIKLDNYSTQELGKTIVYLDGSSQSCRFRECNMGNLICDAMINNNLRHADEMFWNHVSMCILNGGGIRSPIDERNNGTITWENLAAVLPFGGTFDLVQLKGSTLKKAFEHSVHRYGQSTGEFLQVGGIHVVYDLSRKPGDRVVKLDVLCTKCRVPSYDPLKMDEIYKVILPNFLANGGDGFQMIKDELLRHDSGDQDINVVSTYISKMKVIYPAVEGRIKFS
# Method notes: flow cytometry on CHOK1-cynoCD73 cells

humanized CQ137 monoclonal antibody (137-8) (antibody, V domains shown) VH: QVQLVQSGAEVKKPGSSVKVSCKASGYSFTGYYIHWVRQAPGQGLEWMGRINPYNGATTYNQNFKDRVTITVDKSTSTAYMELSSLRSEDTAVYYCARFHYGAPDFWGQGTLVTVSS VL: DIQMTQSPSSLSASVGDRVTITCKASQDINTYLTWYQQKPGKAPKTLIYRANILVDGVPSRFSGSGSGTDFTLTISSLQPEDFATYYCLQYDQFPLTFGGGTKVEIKR; ~8 ng/mL

Q: Item under review: humanized CQ137 monoclonal antibody (137-4) (antibody, V domains shown) VH: QVQLVQSGAEVKKPGSSVKVSCKASGYSFTGYYIHWVRQAPGQGLEWMGRINPYNGATTYNQNFKDRVTITVDKSTSTAYMELSSLRSEDTAVYYCARFHYGAVDYWGQGTLVTVSS VL: DIQMTQSPSSLSASVGDRVTITCKASQDINTYLTWYQQKPGKAPKTLIYRANILVDGVPSRFSGSGSGTDFTLTISSLQPEDFATYYCLQYEEFPLTFGGGTKVEIKR . Reported EC50 (read off the curve)?
Ans: ~8 ng/mL

Q: What measured EC50 (read off the curve) goes with humanized CQ137 monoclonal antibody (137-6) (antibody, V domains shown) VH: QVQLVQSGAEVKKPGSSVKVSCKASGYSFTGYYIHWVRQAPGQGLEWMGRINPYNGATTYNQNFKDRVTITVDKSTSTAYMELSSLRSEDTAVYYCARFHYGAPEYWGQGTLVTVSS VL: DIQMTQSPSSLSASVGDRVTITCKASQDINTYLTWYQQKPGKAPKTLIYRANILVDGVPSRFSGSGSGTDFTLTISSLQPEDFATYYCLQYAEFPLTFGGGTKVEIKR ?
Ans: ~8 ng/mL

Q: Using the record for humanized CQ137 monoclonal antibody (137-7) (antibody, V domains shown) VH: QVQLVQSGAEVKKPGSSVKVSCKASGYSFTGYYIHWVRQAPGQGLEWMGRINPYNGATTYNQNFKDRVTITVDKSTSTAYMELSSLRSEDTAVYYCARFHYGAPNYWGQGTLVTVSS VL: DIQMTQSPSSLSASVGDRVTITCKASQDINTYLTWYQQKPGKAPKTLIYRANILVDGVPSRFSGSGSGTDFTLTISSLQPEDFATYYCLQYDDFPLTFGGGTKVEIKR , report its EC50 (read off the curve).
Ans: ~20 ng/mL
